# protocol.summary: xn = mol fraction of the nth substance listed, in the solute-free solvent
# condition.context: 303.15 K; x2 = 0.8
In this section we review reported solubility (g/100 g solution) values for a set of molecules.
Lab note: write the figure by itself, no unit.

Examples with their reported solubility (g/100 g solution) follow.
Cc1ncc(CO)c(CO)c1O.Cl + O + CC(C)O    13.4
CCOc1ccccc1C(N)=O + CO + CC#N    13.4
Cc1c(Br)c(=O)n(C2CCCC2)c2nc(Cl)ncc12 + CCOC(C)=O + CCO    1.08
Cc1ncc(CO)c(CO)c1O.Cl + O + CC#N    18.3
N#CCNC(=O)c1cnccc1C(F)(F)F + CCOC(C)=O + CCO    7.53

Requested field: solubility (g/100 g solution). Item: Cc1c(Br)c(=O)n(C2CCCC2)c2nc(Cl)ncc12 + C1CCOC1 + CCO
7.27

I am curious: what solubility (g/100 g solution) value has been reported for O=C(NC(C(=O)O)c1ccccc1)OCc1ccccc1 (stereo not drawn) + CCO + O ?
26.9

Tell me the measured solubility (g/100 g solution) of CCOc1ccccc1C(N)=O + CCO + CC#N , please.
8.65

Any idea what its solubility (g/100 g solution) is? The molecule is CCOC(=O)OC1=C(c2cc(C)ccc2C)C(=O)NC12CCC(OC)CC2 (stereo not drawn) + CO + O
10.1

----------
Reported solubility (g/100 g solution) is given for each of the following molecules.
# protocol.summary: xn = mol fraction of the nth substance listed, in the solute-free solvent
# condition.context: 318.15 K; x2 = 0.2
Give the figure by itself; no unit, no explanation.

Some entries whose results are on file:
CCOc1ccccc1C(N)=O + CC#N + CC(C)O    12.3
Cc1c(Br)c(=O)n(C2CCCC2)c2nc(Cl)ncc12 + CC1=CC(=O)CC(C)(C)C1 + CC(C)O    1.87
Cc1c(Br)c(=O)n(C2CCCC2)c2nc(Cl)ncc12 + CCOC(C)=O + CCO    0.86

Quick check: solubility (g/100 g solution) of CCOC(=O)OC1=C(c2cc(C)ccc2C)C(=O)NC12CCC(OC)CC2 (stereo unspecified) + CC(C)O + O ?
6.15

Quick one: solubility (g/100 g solution) for CCOC(=O)OC1=C(c2cc(C)ccc2C)C(=O)NC12CCC(OC)CC2 (stereo unspecified) + CCO + O ?
1.82

What does the data say about its solubility (g/100 g solution)? Entry: CCOC(=O)OC1=C(c2cc(C)ccc2C)C(=O)NC12CCC(OC)CC2 (stereo unspecified) + CC(C)=O + O
3.61

----------
# protocol.summary: xn = mol fraction of the nth substance listed, in the solute-free solvent
# condition.context: 323.15 K; x2 = 0.7
measurement.name: solubility (g/100 g solution)
Output: the number by itself.

Which solubility (g/100 g solution) value is on record for Cc1c(Br)c(=O)n(C2CCCC2)c2nc(Cl)ncc12 + CCOC(C)=O + CCO ?
1.67

What does the data say about its solubility (g/100 g solution)? Entry: Cl.NC(Cc1ccccc1)C(=O)OCc1ccccc1 (centres undefined) + CO + CC(C)=O
15.8

Quick one: solubility (g/100 g solution) of CCOc1ccccc1C(N)=O + CO + CC#N ?
29.3

Recorded solubility (g/100 g solution) for Cl.N=C(N)NC(=N)N1CCOCC1 + O + CC(C)O , please?
39.1

Form field: reported solubility (g/100 g solution) of CCOc1ccccc1C(N)=O + CC#N + CCO
21.7

----------
# protocol.summary: xn = mol fraction of the nth substance listed, in the solute-free solvent
# condition.context: 303.15 K; x2 = 0.6
Binary call on solubility (g/100 g solution): 1 (yes) from 8 upward, 0 (no) beneath that.

Take a look at these entries with their results.
Cc1c(Br)c(=O)n(C2CCCC2)c2nc(Cl)ncc12 + C1CCOC1 + CCO    0 (no)
Cc1c(Br)c(=O)n(C2CCCC2)c2nc(Cl)ncc12 + CC1=CC(=O)CC(C)(C)C1 + CC(C)O    0 (no)
Cc1ncc(CO)c(CO)c1O.Cl + O + CC#N    1 (yes)

# bool: solubility (g/100 g solution) of CCOc1ccccc1C(N)=O + CC#N + CC(C)O >= 8
1 (yes)

In plain terms: is recorded solubility (g/100 g solution) at least 8 for CCOC(=O)OC1=C(c2cc(C)ccc2C)C(=O)NC12CCC(OC)CC2 (stereo not given) + CC(C)O + O ?
1 (yes)

Would you say Cl.N=C(N)NC(=N)N1CCOCC1 + O + CC(C)O shows solubility (g/100 g solution) at minimum 8?
1 (yes)

Form field: solubility (g/100 g solution) at least 8? Entry: O=C(NC(C(=O)O)c1ccccc1)OCc1ccccc1 (stereo not given) + CCO + O
1 (yes)

Threshold query (solubility (g/100 g solution) >= 8) on CCOC(=O)OC1=C(c2cc(C)ccc2C)C(=O)NC12CCC(OC)CC2 (stereo not given) + CO + O
0 (no)

----------
# protocol.summary: xn = mol fraction of the nth substance listed, in the solute-free solvent
# condition.context: 288.15 K; x2 = 0.7
Quick rule for you: solubility (g/100 g solution) at 5 or higher means Yes, lower means No.

Known results for compounds:
Cc1ncc(CO)c(CO)c1O.Cl + O + CC(C)O    Yes
Cc1ncc(CO)c(CO)c1O.Cl + O + CCCO    Yes
Cc1c(Br)c(=O)n(C2CCCC2)c2nc(Cl)ncc12 + CC1=CC(=O)CC(C)(C)C1 + CC(C)O    No
Cc1ncc(CO)c(CO)c1O.Cl + O + CC#N    Yes
Cc1c(Br)c(=O)n(C2CCCC2)c2nc(Cl)ncc12 + C1CCOC1 + CCO    No
COC(=O)C(N)CS.Cl (configuration not stated) + CCO + ClCCl    Yes

# bool: solubility (g/100 g solution) of Cc1c(Br)c(=O)n(C2CCCC2)c2nc(Cl)ncc12 + CCOC(C)=O + CCO >= 5
No

----------
# protocol.summary: xn = mol fraction of the nth substance listed, in the solute-free solvent
# condition.context: 298.15 K; x2 = 0.8
Outcome label depends on solubility (g/100 g solution) relative to 8: at/above gives rule met, below gives rule not met.

Here are 2 molecules together with their reported answers.
CCOC(=O)OC1=C(c2cc(C)ccc2C)C(=O)NC12CCC(OC)CC2 (stereo not given) + CC(C)O + O    rule not met
Cc1ncc(CO)c(CO)c1O.Cl + O + CCCO    rule met

Next, consider the following molecule.
Does solubility (g/100 g solution) meet or surpass 8 for CCOc1ccccc1C(N)=O + CCO + CC#N ?
rule not met

----------
# protocol.summary: xn = mol fraction of the nth substance listed, in the solute-free solvent
# condition.context: 303.15 K; x2 = 0.5
Kindly return y if reported solubility (g/100 g solution) is no lower than 4; return n if it is lower.

Below are worked cases with known answers.
Cl.NC(Cc1ccccc1)C(=O)OCc1ccccc1 (configuration not stated) + CO + CC(C)=O    y
CCOc1ccccc1C(N)=O + CC#N + CC(C)O    y
Cc1c(Br)c(=O)n(C2CCCC2)c2nc(Cl)ncc12 + CCOC(C)=O + CCO    n
Cc1c(Br)c(=O)n(C2CCCC2)c2nc(Cl)ncc12 + CC1=CC(=O)CC(C)(C)C1 + CC(C)O    n
Cc1ncc(CO)c(CO)c1O.Cl + O + CC(C)O    y
COC(=O)C(N)CS.Cl (configuration not stated) + CCO + ClCCl    y

Next up:
Is solubility (g/100 g solution) for Cl.N=C(N)NC(=N)N1CCOCC1 + O + CC(C)O at or above 4?
y

----------
# protocol.summary: xn = mol fraction of the nth substance listed, in the solute-free solvent
# condition.context: 318.15 K; x2 = 0.2
Hi, to clarify the labels: true (1) covers solubility (g/100 g solution) from 0.2 upward, false (0) covers anything below 0.2.

Field: example entries. Status: answers known.
N#CCNC(=O)c1cnccc1C(F)(F)F + CCOC(C)=O + CCO    true (1)
CCOC(=O)OC1=C(c2cc(C)ccc2C)C(=O)NC12CCC(OC)CC2 (stereo unspecified) + CO + O    false (0)
CCOc1ccccc1C(N)=O + CO + CC#N    true (1)

Could you verify whether the entry NC(=O)NC1NC(=O)NC1=O (stereo unspecified) + O + CO shows solubility (g/100 g solution) of no less than 0.2?
true (1)

I'd appreciate it if you could say whether CCOc1ccccc1C(N)=O + CCO + CC#N has solubility (g/100 g solution) at least equal to 0.2.
true (1)

Is solubility (g/100 g solution) for Cc1c(Br)c(=O)n(C2CCCC2)c2nc(Cl)ncc12 + C1CCOC1 + CCO at or above 0.2?
true (1)
